These measurements were taken from ChEMBL document CHEMBL5046231.

procedure_details: Apparent permeability across apical to basolateral side in human Caco-2 cells assessed as fold increase in permeability at 0.5 mM measured up to 60 mins by UPLC-MS/MS analysis relative to its enantiomers
Format: ADME, cell-based
measurement_parameters: caco-2, 1 h, 500 µM
measured_attribute: fold change (FC)
I only need the number, thanks.

// solved cases for fold change (FC) follow
Asked: Fill in the blank: the reported fold change (FC) of O=C(O)[C@H](CO)NC(=O)[C@H]1C[C@H](O)CN1 is ____.
Given back: 6.3

Asked: Fill in the blank: the reported fold change (FC) of O=C(O)[C@H](CO)NC(=O)[C@@H]1C[C@@H](O)CN1 is ____.
Given back: 6.3

Asked: Fill in the blank: the reported fold change (FC) of O=C(O)[C@H](CO)NC(=O)[C@@H]1C[C@H](O)CN1 is ____.
Given back: 6.3

Then this compound:
Asked: Fill in the blank: the reported fold change (FC) of O=C(N[C@H](CO)C(=O)O)[C@@H]1C[C@@H](O)CN1 is ____.
Given back: 6.3

====

procedure_details: Metabolic stability in healthy C57BL/6 mouse jejunum assessed as half life measured up to 12 hrs by HPLC analysis
Type: ADME, tissue-based
List of half-life values.

// solved cases for half-life follow
Asked: Fill in the blank: the reported half-life of O=C(O)[C@H](CO)NC(=O)[C@@H]1C[C@@H](O)CN1 is ____.
Given back: 21 min

Asked: Fill in the blank: the reported half-life of O=C(O)[C@H](CO)NC(=O)[C@H]1C[C@@H](O)CN1 is ____.
Given back: > 720 min

Asked: Fill in the blank: the reported half-life of O=C(N[C@H](CO)C(=O)O)[C@@H]1C[C@@H](O)CN1 is ____.
Given back: 19.8 min

Continuing:
Asked: Fill in the blank: the reported half-life of O=C(N[C@H](CO)C(=O)O)[C@@H]1C[C@H](O)CN1 is ____.
Given back: > 720 min

Asked: Fill in the blank: the reported half-life of O=C(O)[C@H](CO)NC(=O)[C@H]1C[C@H](O)CN1 is ____.
Given back: > 720 min

Asked: Fill in the blank: the reported half-life of O=C(O)[C@H](CO)NC(=O)[C@@H]1C[C@H](O)CN1 is ____.
Given back: 23.4 min

Asked: Fill in the blank: the reported half-life of O=C(O)[C@@H](CO)NC(=O)[C@H]1C[C@H](O)CN1 is ____.
Given back: > 720 min

Asked: Fill in the blank: the reported half-life of O=C(O)[C@@H](CO)NC(=O)[C@H]1C[C@@H](O)CN1 is ____.
Given back: > 720 min

====

procedure_details: Metabolic stability in DSS-induced C57BL/6 mouse jejunum assessed as half life measured up to 12 hrs by HPLC analysis
Assay type: ADME, tissue-based
measured_attribute: half-life

// solved cases for half-life follow
Asked: Fill in the blank: the reported half-life of O=C(O)[C@H](CO)NC(=O)[C@@H]1C[C@H](O)CN1 is ____.
Given back: 21 min

Asked: Fill in the blank: the reported half-life of O=C(O)[C@@H](CO)NC(=O)[C@H]1C[C@H](O)CN1 is ____.
Given back: > 720 min

Asked: Fill in the blank: the reported half-life of O=C(O)[C@H](CO)NC(=O)[C@H]1C[C@H](O)CN1 is ____.
Given back: > 720 min

Asked: Fill in the blank: the reported half-life of O=C(O)[C@H](CO)NC(=O)[C@@H]1C[C@@H](O)CN1 is ____.
Given back: 17.4 min

Continuing:
Asked: Fill in the blank: the reported half-life of O=C(O)[C@@H](CO)NC(=O)[C@H]1C[C@@H](O)CN1 is ____.
Given back: > 720 min

Asked: Fill in the blank: the reported half-life of O=C(O)[C@H](CO)NC(=O)[C@H]1C[C@@H](O)CN1 is ____.
Given back: > 720 min

Asked: Fill in the blank: the reported half-life of O=C(N[C@H](CO)C(=O)O)[C@@H]1C[C@H](O)CN1 is ____.
Given back: > 720 min

Asked: Fill in the blank: the reported half-life of O=C(N[C@H](CO)C(=O)O)[C@@H]1C[C@@H](O)CN1 is ____.
Given back: 23.4 min
